tested on: SW-620; assay: NCI tumour cell line growth inhibition, 48 h
Activity calls are given as the source filed them. Cut-off read from the data, not from the text of the source: active = GI50 up to about 1.1 µM and inactive = higher.
Pick from true (active), false (inactive) when you respond.

Worked cases, answers included:
MOLECULE: Cc1nc(C)c(N2CCN(CN)CC2)c(O)n1
TESTED_SYSTEM: SW-620
DISCRETE_LABEL: false

MOLECULE: COc1ccccc1N1C(=O)C2c3[nH]c4ccccc4c3C3CCC(C(C)(C)C)CC3C2C1=O (stereo not given)
TESTED_SYSTEM: SW-620
DISCRETE_LABEL: false

MOLECULE: CCCC(C(=O)OC)C1N/C(=N/C#N)N(Cc2ccccc2)C1=O (stereo not given)
TESTED_SYSTEM: SW-620
DISCRETE_LABEL: false

Recorded test call requested for O=C(O)CCC(=O)OC1N=C(c2ccccc2Cl)c2cc([N+](=O)[O-])ccc2NC1=O (stereo not given)
false

Recorded test call requested for CC1(C)CCC(Sc2ccccc2)O1 (stereo not given)
false

Recorded test call requested for C#CCOCC12C=CC(O1)C1COC(=O)C12 (stereo not given)
false

Recorded test call requested for COC(=N)/C(=C1\OC(=N)C(c2ccc(Cl)cc2)=C1O)c1ccc(Cl)cc1
false

Recorded test call requested for COc1ccc(-c2nc3ccccc3s2)cc1OC
false

Recorded test call requested for Cc1cccc2c(N)c3cccc(C(=O)NCC[N+](C)(C)Cc4sc(N5CCOCC5)nc4[N+](=O)[O-])c3nc12
true

Recorded test call requested for CC(C)=CCC/C(C)=C/CC/C(C)=C/CC/C=C(\C)CC/C=C(\C)CCC1SC1(C)C (stereo not given)
false
